Overview of recorded pIC50 for various compounds
# subjectOfTest: B-Raf (V600E)-kinase (Homo sapiens (Human), UniProt P15056, V600E)
# Sequence (P15056 whole entry V600E): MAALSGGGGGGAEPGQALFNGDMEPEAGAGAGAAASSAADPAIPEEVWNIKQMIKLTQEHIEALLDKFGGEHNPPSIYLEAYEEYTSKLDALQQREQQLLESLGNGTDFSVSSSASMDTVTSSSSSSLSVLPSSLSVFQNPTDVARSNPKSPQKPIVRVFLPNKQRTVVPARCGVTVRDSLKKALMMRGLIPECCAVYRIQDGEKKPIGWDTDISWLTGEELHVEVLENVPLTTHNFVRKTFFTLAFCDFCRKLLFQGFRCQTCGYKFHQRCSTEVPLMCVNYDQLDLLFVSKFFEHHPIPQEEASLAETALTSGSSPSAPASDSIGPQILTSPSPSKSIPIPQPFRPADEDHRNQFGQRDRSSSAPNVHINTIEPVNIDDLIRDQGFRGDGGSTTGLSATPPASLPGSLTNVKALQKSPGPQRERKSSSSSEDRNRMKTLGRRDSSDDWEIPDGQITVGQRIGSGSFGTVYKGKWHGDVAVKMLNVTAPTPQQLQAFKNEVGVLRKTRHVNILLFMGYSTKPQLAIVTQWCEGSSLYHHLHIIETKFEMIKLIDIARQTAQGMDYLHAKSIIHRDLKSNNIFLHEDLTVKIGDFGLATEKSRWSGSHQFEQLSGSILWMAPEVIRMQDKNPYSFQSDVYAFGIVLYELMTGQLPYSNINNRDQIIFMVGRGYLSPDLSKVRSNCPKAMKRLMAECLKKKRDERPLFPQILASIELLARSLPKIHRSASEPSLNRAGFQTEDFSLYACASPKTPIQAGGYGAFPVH
# experiment: Kinase test B-RAF (V600E)
# Type: biochemical
# conditionContext: B-RAF (V600E) kinase test, 250 μM ATP
# Description: Kinase Test B-RAF (V600E) In a dilution series 10 μL of test substance solution are placed in a multiwell plate. The dilution series is selected so that generally a range of concentrations of 2 μM to 0.119 nM or 0.017 nM is covered. […] After the addition of 200 μL Enhancement Solution (Perkin Elmer, #4001-0010/#1244-105) the mixture is shaken for 10 min at RT and then measured in a Wallac Victor using the program “Delfia Time Resolved Fluorescence (Europium)”. […]
Just the number, please; pIC50 means minus log10 of the concentration in mol/L.

**Q:** Look at this compound and give its reported pIC50. `Cc1ccc(C(=O)Nc2cccc(C(F)(F)F)c2)cc1Nc1ncnc2c(N)nc(N3CCCN(C4CC4)CC3)nc12`
**A:** 9.00

**Q:** Then what about the compound `Cn1nc(C(C)(C)C)cc1NC(=O)c1cc(Cl)cc(Nc2ncnc3cnc(N4CCCC4)nc23)c1Cl` ?
**A:** 5.70

**Q:** Then what about the compound `Cc1ccc(C(=O)Nc2cc(C(C)(C)C)n[nH]2)cc1Nc1ncnc2c(N)nc(N3CCN(C)CC3)nc12` ?
**A:** 8.52

**Q:** Then what about the compound `Cc1ccc(C(=O)Nc2cc(C(F)(F)F)ccn2)cc1Nc1ncnc2cnc(N3CCCCC3)nc12` ?
**A:** 8.10

**Q:** Then what about the compound `CNc1ncnc2c(Nc3cc(C(=O)Nc4cc(C(C)(C)C)on4)ccc3C)ncnc12` ?
**A:** 9.00

**Q:** Then what about the compound `Cc1ccc(C(=O)Nc2cccc(OC(F)(F)F)c2)cc1Nc1ncnc2cnc(N(C)CCN(C)C)nc12` ?
**A:** 8.70

**Q:** Then what about the compound `Cc1ccc(C(=O)NCc2cccc(C(F)(F)F)c2)cc1Nc1ncnc2cnc(N3CC[C@@H](F)C3)nc12` ?
**A:** 7.96

**Q:** Then what about the compound `Cc1ccc(C(=O)Nc2cc(N3CCN(C)CC3)c(F)c(C(F)(F)F)c2)cc1Nc1ncnc2cnc(N3CCN(CC4CCN(C)CC4)CC3)nc12` ?
**A:** 8.30

***
**Q:** Look at this compound and give its reported pIC50. `COc1c(NC(=O)c2ccc(C)c(Nc3ncnc4cnc(N5CCCCC5)nc34)c2)cc(C(C)(C)C)cc1NS(C)(=O)=O`
**A:** 7.39

**Q:** Then what about the compound `COc1ncc2ncnc(Nc3cc(C(=O)Nc4ccc(OC)c(C(F)(F)F)c4)ccc3C)c2n1` ?
**A:** 8.70

**Q:** Then what about the compound `Cc1ccc(C(=O)Nc2nnc(C(F)(F)F)s2)cc1Nc1ncnc2cnc(N3CCOCC3)nc12` ?
**A:** 6.70

**Q:** Then what about the compound `COc1ccc(NC(=O)c2ccc(C(F)(F)F)c(Nc3ncnc4cnc(NCCCN5CCOCC5)nc34)c2)cc1C(F)(F)F` ?
**A:** 6.23

**Q:** Then what about the compound `CN1CCN(c2cc(NC(=O)c3ccc(F)c(Nc4ncnc5cnc(N6CCOCC6)nc45)c3)cc(C(F)(F)F)c2F)CC1` ?
**A:** 8.70
